Test: Metabolic stability in hepatocyte
Conditions: Beagle, dog, hepatocytes in suspension

{"molecule": "CCc1cc(Cl)c(OC)c(N2CCN(CC(O)CCNC(=O)c3cc4ccccc4[nH]3)CC2)c1 (stereo not shown)", "half-life at 0.5 μM [h]": 1.52}

* * *

Molecular target: CYP2C9 (Homo sapiens, UniProt P11712)
Sequence (P11712 whole entry): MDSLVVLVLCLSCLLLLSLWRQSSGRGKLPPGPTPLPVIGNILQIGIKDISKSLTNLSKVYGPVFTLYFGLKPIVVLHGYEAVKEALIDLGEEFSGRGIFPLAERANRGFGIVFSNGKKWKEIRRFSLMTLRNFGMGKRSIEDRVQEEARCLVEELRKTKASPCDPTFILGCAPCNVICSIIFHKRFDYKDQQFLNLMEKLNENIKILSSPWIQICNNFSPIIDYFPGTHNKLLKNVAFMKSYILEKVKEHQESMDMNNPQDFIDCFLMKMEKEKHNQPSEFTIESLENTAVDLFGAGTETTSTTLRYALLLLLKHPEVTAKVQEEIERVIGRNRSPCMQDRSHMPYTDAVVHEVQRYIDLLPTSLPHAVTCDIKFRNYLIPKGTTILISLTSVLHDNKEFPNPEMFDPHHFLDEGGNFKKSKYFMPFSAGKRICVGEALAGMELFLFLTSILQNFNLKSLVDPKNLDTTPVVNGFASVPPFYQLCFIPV
Assay: CYP inhibition in human liver microsomes
Conditions: human, microsomes
recorded_endpoint: activity at 20 min, 30 µM (%)

{"input_smiles": "C=C(C)[C@@H]1CCC2=CC(=O)C[C@@H](C)[C@]2(C)C1", "tested_system": "CYP2C9 (Homo sapiens, UniProt P11712)", "recorded_endpoint": "activity at 20 min, 30 µM", "quantitative_readout": 84.6}

* * *

Test: Metabolic stability in liver microsomes
Conditions: dog, liver microsomes, pH 7.4
recorded_endpoint: remaining at 0.5 h, 10 μM

{"compound": "CCc1cc(Cl)c(OC)c(N2CCN(CC(O)CCNC(=O)c3cc4ccccc4[nH]3)CC2)c1 (stereo not shown) [R-VK4-116]", "result": "74.3%"}

* * *

Biological target: P-gp (Homo sapiens, UniProt P08183)
Construct: expressed in transfected cells; host or cells: MDCK-II cells
Sequence (P08183 whole entry): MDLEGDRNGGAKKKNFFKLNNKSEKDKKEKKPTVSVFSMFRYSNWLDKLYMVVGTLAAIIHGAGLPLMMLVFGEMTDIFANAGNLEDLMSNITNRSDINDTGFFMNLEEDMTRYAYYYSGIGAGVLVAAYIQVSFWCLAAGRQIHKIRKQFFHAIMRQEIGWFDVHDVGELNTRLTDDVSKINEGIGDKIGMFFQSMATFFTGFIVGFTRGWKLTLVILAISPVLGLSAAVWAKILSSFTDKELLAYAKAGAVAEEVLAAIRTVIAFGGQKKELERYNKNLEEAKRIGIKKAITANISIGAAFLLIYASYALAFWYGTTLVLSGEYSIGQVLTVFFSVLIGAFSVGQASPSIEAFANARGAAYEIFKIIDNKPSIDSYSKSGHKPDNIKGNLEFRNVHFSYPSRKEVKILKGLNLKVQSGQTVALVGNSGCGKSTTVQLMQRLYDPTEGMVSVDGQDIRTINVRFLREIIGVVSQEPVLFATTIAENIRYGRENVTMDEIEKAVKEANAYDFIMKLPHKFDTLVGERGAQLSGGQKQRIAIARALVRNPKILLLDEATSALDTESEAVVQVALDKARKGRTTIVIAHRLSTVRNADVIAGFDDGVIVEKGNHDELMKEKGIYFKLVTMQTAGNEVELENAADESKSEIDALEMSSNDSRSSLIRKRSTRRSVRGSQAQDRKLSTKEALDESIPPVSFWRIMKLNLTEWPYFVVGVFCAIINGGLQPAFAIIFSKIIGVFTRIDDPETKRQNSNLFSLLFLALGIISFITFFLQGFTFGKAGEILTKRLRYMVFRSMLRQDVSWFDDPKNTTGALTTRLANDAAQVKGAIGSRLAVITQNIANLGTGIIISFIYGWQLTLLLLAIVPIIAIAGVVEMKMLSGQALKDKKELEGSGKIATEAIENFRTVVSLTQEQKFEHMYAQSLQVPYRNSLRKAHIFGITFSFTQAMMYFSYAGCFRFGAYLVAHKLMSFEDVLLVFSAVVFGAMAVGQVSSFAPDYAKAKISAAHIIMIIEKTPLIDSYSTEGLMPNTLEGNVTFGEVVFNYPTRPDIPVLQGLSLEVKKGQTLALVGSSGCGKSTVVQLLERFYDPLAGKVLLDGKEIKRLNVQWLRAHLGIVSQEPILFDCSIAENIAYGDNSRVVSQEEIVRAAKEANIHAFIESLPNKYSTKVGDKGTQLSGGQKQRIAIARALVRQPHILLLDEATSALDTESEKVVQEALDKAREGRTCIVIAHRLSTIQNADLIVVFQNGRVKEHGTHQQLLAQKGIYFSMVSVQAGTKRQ
Experiment: Transporter mediated assay (substrate/inhibitor), MDCK-II cells
Format: in vitro ADME
Conditions: human, probe quinidine 0.1 μM

{"compound": "COc1cc2c(cc1OC)CN(CCc1ccc(NC(=O)c3cccc4c(=O)c5cccc(OC)c5[nH]c34)cc1)CC2 [elacridar]", "unit_symbol": "%", "inhibition at 3 μM": 98.4}

* * *

Tested on: CYP3A4 mRNA
Assay: CYP induction, mRNA, primary cultured human hepatocytes
Assay type: in vitro ADME
Details: human, primary cultured human hepatocytes, Lot 399, 5 μM; read-out: CYP3A4 mRNA Fold Induction (fold of vehicle control)

{"molecule": "CCc1cc(Cl)c(OC)c(N2CCN(CC(O)CCNC(=O)c3cc4ccccc4[nH]3)CC2)c1 (stereo not shown) [R-VK4-116]", "fold induction at 48 h, 5 µM": 2.7}

* * *

Assay: Metabolic stability in liver microsomes
Conditions: human, microsomes, pH 7.4

{"molecule": "Cc1ncc2n1-c1ccc(Cl)cc1C(c1ccccc1F)=NC2 [Midazolam, reference compound]", "remaining at 0.5 h, 10 μM [%]": 9.7}

* * *

Assay: Metabolic stability in liver microsomes
Details: rat, liver microsomes, pH 7.4

{"molecule": "CCc1cc(Cl)c(OC)c(N2CCN(CC(O)CCNC(=O)c3cc4ccccc4[nH]3)CC2)c1 (stereo not shown)", "remaining at 1 h, 10 μM / %": 79.7}

* * *

Test system: CYP1A2 mRNA
Assay: CYP induction, mRNA, primary cultured human hepatocytes
Type: in vitro ADME
Settings: Lot 399, 5 μM, read-out: CYP1A2 mRNA Fold Induction (fold of vehicle control)

{"compound": "CCc1cc(Cl)c(OC)c(N2CCN(CC(O)CCNC(=O)c3cc4ccccc4[nH]3)CC2)c1 (stereo not shown)", "tested_system": "CYP1A2 mRNA", "fold induction at 48 h, 5 µM": 1.6}

* * *

Biological target: UniProt:P08684
Sequence (P08684 2-503): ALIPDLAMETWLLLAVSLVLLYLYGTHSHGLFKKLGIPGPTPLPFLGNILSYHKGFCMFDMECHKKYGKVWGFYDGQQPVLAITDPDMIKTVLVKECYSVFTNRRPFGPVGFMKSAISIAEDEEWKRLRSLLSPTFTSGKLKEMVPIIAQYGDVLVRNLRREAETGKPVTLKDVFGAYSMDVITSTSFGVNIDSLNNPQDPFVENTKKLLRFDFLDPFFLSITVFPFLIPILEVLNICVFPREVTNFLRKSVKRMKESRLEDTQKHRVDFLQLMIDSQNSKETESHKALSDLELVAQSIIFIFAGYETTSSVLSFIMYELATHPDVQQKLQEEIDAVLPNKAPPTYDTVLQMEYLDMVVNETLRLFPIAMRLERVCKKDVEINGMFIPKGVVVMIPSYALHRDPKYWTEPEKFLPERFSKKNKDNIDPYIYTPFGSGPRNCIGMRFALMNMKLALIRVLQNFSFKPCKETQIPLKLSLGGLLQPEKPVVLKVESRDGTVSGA
Assay: CYP inhibition in human liver microsomes
Conditions: CYP activity (% of Control) 3A4 (Testosterone), substrate testosterone, 10 μM

{"input_smiles": "S=P(N1CC1)(N1CC1)N1CC1", "tested_system": "UniProt:P08684", "unit_symbol": "%", "activity at 20 min, 10 µM": 91.4}
